system.tested: CYP3A4 (Homo sapiens, UniProt P08684)
Sequence (P08684 whole entry): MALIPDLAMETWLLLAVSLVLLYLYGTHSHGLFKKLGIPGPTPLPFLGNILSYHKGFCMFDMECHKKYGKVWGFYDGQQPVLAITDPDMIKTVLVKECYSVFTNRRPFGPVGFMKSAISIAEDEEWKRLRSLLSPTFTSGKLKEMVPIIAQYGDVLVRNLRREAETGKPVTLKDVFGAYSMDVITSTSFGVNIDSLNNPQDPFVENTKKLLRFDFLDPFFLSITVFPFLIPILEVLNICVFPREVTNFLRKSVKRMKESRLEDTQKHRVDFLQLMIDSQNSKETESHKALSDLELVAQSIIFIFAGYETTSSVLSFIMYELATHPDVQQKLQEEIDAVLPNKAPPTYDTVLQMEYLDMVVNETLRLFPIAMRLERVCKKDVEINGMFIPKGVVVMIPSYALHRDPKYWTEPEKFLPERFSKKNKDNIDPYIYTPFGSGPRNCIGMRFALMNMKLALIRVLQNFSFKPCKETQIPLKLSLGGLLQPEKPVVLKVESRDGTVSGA
pIC50: −log10 of the molar value.
measurement.type: pIC50

Exercise: State the recorded pIC50 for this entry: `Cc1cc(SCc2[se]c(-c3ccc(C(F)(F)F)cc3)nc2C)ccc1OCC(=O)O`
Solution: < 5.00

====

system.tested: hPPARδ (Homo sapiens, UniProt Q03181)
Sequence (Q03181 whole entry): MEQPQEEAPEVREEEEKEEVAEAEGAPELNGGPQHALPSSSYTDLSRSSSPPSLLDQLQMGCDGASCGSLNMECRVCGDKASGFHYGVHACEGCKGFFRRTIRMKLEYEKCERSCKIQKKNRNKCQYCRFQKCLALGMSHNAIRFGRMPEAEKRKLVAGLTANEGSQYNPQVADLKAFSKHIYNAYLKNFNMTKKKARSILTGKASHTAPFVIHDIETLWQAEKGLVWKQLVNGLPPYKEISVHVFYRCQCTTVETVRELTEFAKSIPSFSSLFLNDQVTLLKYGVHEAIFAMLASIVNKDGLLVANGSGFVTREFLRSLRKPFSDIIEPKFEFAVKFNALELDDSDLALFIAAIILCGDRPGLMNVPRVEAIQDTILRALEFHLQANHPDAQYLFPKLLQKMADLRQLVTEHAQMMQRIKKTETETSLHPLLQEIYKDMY
assay.overview: In vitro co-transfection (PPRE-luciferase) assay in CV-1 cells, hPPARδ
conditions.used: co-transfection assay, CV-1 cells, 24 h; read-out: Potency (EC50) hPPARδ
measurement.type: EC50 (nM)
Give bare numbers, in nM.

Cc1cc(SCc2[se]c(-c3ccc(C(F)(F)F)cc3)nc2C)ccc1OCC(=O)O	0.7

Please look at the following compound next.
Exercise: Record request: EC50 value, item `Cc1cc([Se]Cc2[se]c(-c3ccc(C(F)(F)F)cc3)nc2C)ccc1OCC(=O)O`
Solution: 4.3

====

system.tested: CYP2D6 (Homo sapiens)
Sequence (P10635 whole entry): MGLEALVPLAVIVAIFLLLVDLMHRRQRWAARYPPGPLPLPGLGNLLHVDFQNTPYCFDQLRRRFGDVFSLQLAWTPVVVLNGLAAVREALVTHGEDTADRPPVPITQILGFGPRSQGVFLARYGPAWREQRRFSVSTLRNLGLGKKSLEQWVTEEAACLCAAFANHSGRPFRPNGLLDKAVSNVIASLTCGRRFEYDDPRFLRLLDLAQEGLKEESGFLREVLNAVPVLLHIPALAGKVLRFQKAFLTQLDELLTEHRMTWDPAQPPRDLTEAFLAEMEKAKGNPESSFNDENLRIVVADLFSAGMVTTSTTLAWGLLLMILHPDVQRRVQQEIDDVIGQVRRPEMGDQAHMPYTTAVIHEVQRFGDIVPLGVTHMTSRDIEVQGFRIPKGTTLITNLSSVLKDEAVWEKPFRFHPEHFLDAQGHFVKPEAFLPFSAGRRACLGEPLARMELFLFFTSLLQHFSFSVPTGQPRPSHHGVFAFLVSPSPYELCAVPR
measurement.type: IC50

Exercise: So what's the measured IC50 for this one? `Cc1cc(SCc2[se]c(-c3ccc(C(F)(F)F)cc3)nc2C)ccc1OCC(=O)O`
Solution: > 10 µM

====

system.tested: hPPARα (Homo sapiens)
Sequence (Q07869 1-468): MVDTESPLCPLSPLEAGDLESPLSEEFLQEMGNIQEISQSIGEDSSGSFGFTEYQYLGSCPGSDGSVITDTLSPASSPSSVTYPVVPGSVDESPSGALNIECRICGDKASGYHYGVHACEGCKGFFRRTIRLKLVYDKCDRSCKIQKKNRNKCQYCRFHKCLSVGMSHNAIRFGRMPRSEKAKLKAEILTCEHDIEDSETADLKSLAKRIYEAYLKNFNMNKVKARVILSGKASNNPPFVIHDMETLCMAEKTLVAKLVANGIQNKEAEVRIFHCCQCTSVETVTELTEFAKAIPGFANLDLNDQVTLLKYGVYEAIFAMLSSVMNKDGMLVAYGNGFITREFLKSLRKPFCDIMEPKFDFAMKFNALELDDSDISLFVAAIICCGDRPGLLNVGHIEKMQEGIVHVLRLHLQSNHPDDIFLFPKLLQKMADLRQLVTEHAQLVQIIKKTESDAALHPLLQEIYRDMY
assay.overview: In vitro co-transfection (PPRE-luciferase) assay in CV-1 cells, hPPARα
Format: cell-based
conditions.used: 24 h, read-out: Potency (EC50) hPPARα
measurement.type: EC50

Cc1cc(SCc2[se]c(-c3ccc(C(F)(F)F)cc3)nc2C)ccc1OCC(=O)O	> 10 µM

Now, please, on to the next compound.
Exercise: Quick one: EC50 of `Cc1cc([Se]Cc2[se]c(-c3ccc(C(F)(F)F)cc3)nc2C)ccc1OCC(=O)O` ?
Solution: > 10 µM

====

assay.overview: Pharmacokinetics in Sprague-Dawley rats
conditions.used: rat, plasma, po, 10 mg/kg
measurement.type: AUC
Hey, just the number and the unit after it is fine.

Exercise: Record request: AUC value, item Cc1cc(SCc2[se]c(-c3ccc(C(F)(F)F)cc3)nc2C)ccc1OCC(=O)O [Compound 5a]
Solution: 13300 ng·h/mL

====

assay.overview: Pharmacokinetics in Sprague-Dawley rats
conditions.used: rat, plasma, po, 10 mg/kg
measurement.type: Cmax (ng/mL)
One number for each entry, in ng/mL.

Exercise: Item Cc1cc(SCc2[se]c(-c3ccc(C(F)(F)F)cc3)nc2C)ccc1OCC(=O)O [Compound 5a] has what recorded Cmax?
Solution: 2740

====

assay.overview: Pharmacokinetics in Sprague-Dawley rats
conditions.used: rat, plasma, oral, 10 mg/kg
measurement.type: bioavailability (%)
Answers are plain numbers, in %.

Exercise: # lookup: bioavailability of `Cc1cc(SCc2[se]c(-c3ccc(C(F)(F)F)cc3)nc2C)ccc1OCC(=O)O`
Solution: 90.7

====

assay.overview: Pharmacokinetics in Sprague-Dawley rats
conditions.used: rat, plasma, iv, 5 mg/kg
measurement.type: Vd

Exercise: Param item = `Cc1cc(SCc2[se]c(-c3ccc(C(F)(F)F)cc3)nc2C)ccc1OCC(=O)O` ; retrieve measured Vd.
Solution: 2.3 L/kg

====

system.tested: CYP2C19 (Homo sapiens)
Sequence (P33261 whole entry): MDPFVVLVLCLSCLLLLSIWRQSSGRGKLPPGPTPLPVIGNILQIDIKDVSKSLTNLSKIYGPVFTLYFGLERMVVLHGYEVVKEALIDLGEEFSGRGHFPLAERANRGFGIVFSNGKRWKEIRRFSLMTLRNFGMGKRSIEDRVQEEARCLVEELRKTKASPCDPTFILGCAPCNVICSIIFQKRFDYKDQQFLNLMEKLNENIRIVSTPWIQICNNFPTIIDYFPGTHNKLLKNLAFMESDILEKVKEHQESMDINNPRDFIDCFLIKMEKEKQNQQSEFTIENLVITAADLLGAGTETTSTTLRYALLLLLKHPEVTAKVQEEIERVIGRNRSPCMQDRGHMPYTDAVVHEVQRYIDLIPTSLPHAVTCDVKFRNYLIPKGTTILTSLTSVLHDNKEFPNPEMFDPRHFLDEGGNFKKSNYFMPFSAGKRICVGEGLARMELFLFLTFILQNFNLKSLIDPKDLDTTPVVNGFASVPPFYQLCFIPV
measurement.type: IC50

Exercise: Using the record for `Cc1cc(SCc2[se]c(-c3ccc(C(F)(F)F)cc3)nc2C)ccc1OCC(=O)O` , report its IC50.
Solution: > 10 µM

====

assay.overview: Pharmacokinetics in Sprague-Dawley rats
conditions.used: rat, plasma, iv, 5 mg/kg
measurement.type: clearance (mL/min/kg)
Answers are plain numbers, in mL/min/kg.

Exercise: # input compound: `Cc1cc(SCc2[se]c(-c3ccc(C(F)(F)F)cc3)nc2C)ccc1OCC(=O)O` ; wanted: its clearance
Solution: 10.2

====

system.tested: CYP1A2 (Homo sapiens, UniProt P05177)
Construct: performed using 0.25 mg/mL human liver microsomes; from tissue; host or cells: human liver microsomes
Sequence (P05177 whole entry): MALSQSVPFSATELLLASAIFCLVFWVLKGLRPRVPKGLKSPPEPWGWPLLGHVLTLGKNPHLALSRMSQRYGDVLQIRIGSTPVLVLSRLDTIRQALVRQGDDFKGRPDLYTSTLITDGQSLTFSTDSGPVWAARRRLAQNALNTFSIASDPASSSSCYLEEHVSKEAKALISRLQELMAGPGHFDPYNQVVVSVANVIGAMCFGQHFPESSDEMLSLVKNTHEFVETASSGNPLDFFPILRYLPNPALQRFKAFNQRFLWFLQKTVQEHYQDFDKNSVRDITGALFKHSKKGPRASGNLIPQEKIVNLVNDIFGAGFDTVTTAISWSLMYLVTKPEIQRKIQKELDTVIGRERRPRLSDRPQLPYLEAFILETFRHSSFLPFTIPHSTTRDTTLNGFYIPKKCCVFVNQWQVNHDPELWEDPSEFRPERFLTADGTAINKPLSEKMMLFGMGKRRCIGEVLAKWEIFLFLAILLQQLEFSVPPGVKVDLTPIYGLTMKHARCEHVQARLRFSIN
assay.overview: CYP inhibition assay, human liver microsomes
Assay type: in vitro ADME
conditions.used: stated for the five CYP subtypes, tested at 10 µM
Method: All incubations were performed in duplicate, and the mean values were used for analysis. […] The CYP-mediated activities in the presence of inhibitors were expressed as a percentage of the corresponding control value. […] aCytochrome P450 (CYP450) enzyme activity was measured by incubating CYP450 enzyme isotype-specific substrates and liver microsomes in the presence of the test compound (10 μM) for 15 min. […]
pIC50: −log10 of the molar value.
measurement.type: pIC50

Exercise: Item under review: `Cc1cc(SCc2[se]c(-c3ccc(C(F)(F)F)cc3)nc2C)ccc1OCC(=O)O` . Reported pIC50?
Solution: < 5.00
